Reference source: the supplement of paper PMC9112550

Tested on: Escherichia coli TOP10
assayRemarks: shrunken log2 fold change of peptide-encoding DNA abundance (4.5 h post-induction vs induction); higher = less antimicrobial activity (less host growth inhibition)
protocolConditions: time post-induction: 4.5 h; library: site-saturation at positions 5, 18, 19, 20
measuredQuantity: shrunken log2 fold change
Simply state the number, no unit and no words.

Solved cases below.
RRIRHRPPRLPRPRPRPANGPRP -0.0837
RRIRMRPPRLPRPRPRPMNEPRP -0.101
RRIRYRPPRLPRPRPRPSEPPRP -0.205
RRIRHRPPRLPRPRPRPKGQPRP -0.00141
RRIRFRPPRLPRPRPRPCKCPRP -0.317
RRIRMRPPRLPRPRPRPKLSPRP 0.982

Exercise: Item under review: `RRIRHRPPRLPRPRPRPCMTPRP` . Reported shrunken log2 fold change?
Solution: 0.0183

Exercise: Can you check `RRIRARPPRLPRPRPRPVWCPRP` next?
Solution: 0.293

Exercise: // query: `RRIRYRPPRLPRPRPRPDTPPRP`
Solution: 0.0497

----------
Tested on: Escherichia coli TOP10
assayRemarks: shrunken log2 fold change of peptide-encoding DNA abundance (4.5 h post-induction vs induction); higher = less antimicrobial activity (less host growth inhibition)
protocolConditions: time post-induction: 4.5 h; library: site-saturation at positions 5, 18, 19, 20
Decide by shrunken log2 fold change: equal to or exceeding -0.1 means t, less means f.

Some solved cases for reference:
RRIRHRPPRLPRPRPRPCSEPRP t
RRIRWRPPRLPRPRPRPDYYPRP f
RRIRIRPPRLPRPRPRPEKEPRP t
RRIRERPPRLPRPRPRPKTWPRP f
RRIRMRPPRLPRPRPRPDRAPRP t

Exercise: Check this sequence for shrunken log2 fold change at or above -0.1: `RRIRDRPPRLPRPRPRPMSHPRP`
Solution: t

Exercise: And then `RRIRMRPPRLPRPRPRPKQVPRP` , what is it?
Solution: t

Exercise: Now the same for `RRIRCRPPRLPRPRPRPYCKPRP`
Solution: f

----------
System: Escherichia coli TOP10
assayRemarks: shrunken log2 fold change of peptide-encoding DNA abundance (4.5 h post-induction vs induction); higher = less antimicrobial activity (less host growth inhibition)
protocolConditions: time post-induction: 4.5 h; library: site-saturation at positions 5, 18, 19, 20
measuredQuantity: shrunken log2 fold change
Keep it simple and answer with nothing but the number.

Examples with answers:
RRIRERPPRLPRPRPRPLAIPRP -0.56
RRIRERPPRLPRPRPRPNFLPRP -0.114
RRIRDRPPRLPRPRPRPQSMPRP 0.0598
RRIRFRPPRLPRPRPRPPMGPRP -0.00833
RRIRVRPPRLPRPRPRPTDSPRP -0.115

Exercise: Test system Escherichia coli TOP10; read-out shrunken log2 fold change; what value for `RRIRFRPPRLPRPRPRPEWEPRP` ?
Solution: 0.00489

Exercise: Try `RRIRMRPPRLPRPRPRPDRQPRP` next.
Solution: 0.239

Exercise: Then what about the sequence `RRIRARPPRLPRPRPRPMINPRP` ?
Solution: -0.0176

Exercise: What about `RRIRDRPPRLPRPRPRPWKPPRP` ?
Solution: -0.35

Exercise: Queued: `RRIRSRPPRLPRPRPRPMMQPRP`
Solution: -0.241

Exercise: Now the same for `RRIRARPPRLPRPRPRPHMDPRP`
Solution: 0.281

----------
The following sequences are shown together with reported shrunken log2 fold change values.
System: Escherichia coli TOP10
assayRemarks: shrunken log2 fold change of peptide-encoding DNA abundance (4.5 h post-induction vs induction); higher = less antimicrobial activity (less host growth inhibition)
protocolConditions: time post-induction: 4.5 h; library: site-saturation at positions 5, 18, 19, 20
No unit in the answer, please; the number alone is enough.

Exercise: Hi! What's the reported shrunken log2 fold change for `RRIRERPPRLPRPRPRPQTGPRP` on Escherichia coli TOP10?
Solution: -0.0945

----------
We begin with a simple list: items and their reported shrunken log2 fold change.
Test system: Escherichia coli TOP10
assayRemarks: shrunken log2 fold change of peptide-encoding DNA abundance (4.5 h post-induction vs induction); higher = less antimicrobial activity (less host growth inhibition)
protocolConditions: time post-induction: 4.5 h; library: site-saturation at positions 5, 18, 19, 20
Number, no unit, nothing else.

RRIRERPPRLPRPRPRPGWHPRP 0.027
RRIRLRPPRLPRPRPRPVHPPRP 0.039
RRIRTRPPRLPRPRPRPQLDPRP -0.0457
RRIRRRPPRLPRPRPRPQNEPRP 0.0801
RRIRLRPPRLPRPRPRPWYQPRP -0.149
RRIRSRPPRLPRPRPRPEDWPRP 0.802
RRIRFRPPRLPRPRPRPMQTPRP -0.101
RRIRYRPPRLPRPRPRPWTEPRP -0.0689
RRIRWRPPRLPRPRPRPMTIPRP 0.025
RRIRNRPPRLPRPRPRPWRPPRP 0.337

Turning now to a further sequence:
Exercise: Tell me the measured shrunken log2 fold change of `RRIRPRPPRLPRPRPRPHKAPRP` , please.
Solution: 0.0705

----------
Tested on: Escherichia coli TOP10
assayRemarks: shrunken log2 fold change of peptide-encoding DNA abundance (4.5 h post-induction vs induction); higher = less antimicrobial activity (less host growth inhibition)
protocolConditions: time post-induction: 4.5 h; library: site-saturation at positions 5, 18, 19, 20
Entry class follows shrunken log2 fold change: low bin: < -0.2; mid bin: ≥ -0.2 and < 0.06; high bin: ≥ 0.06

RRIRDRPPRLPRPRPRPISCPRP mid bin
RRIRQRPPRLPRPRPRPQIKPRP low bin
RRIRNRPPRLPRPRPRPVKWPRP low bin
RRIRDRPPRLPRPRPRPLMNPRP mid bin
RRIRPRPPRLPRPRPRPMFVPRP low bin

Exercise: Hi there! Could you help me figure out the category for `RRIRRRPPRLPRPRPRPHSWPRP` please?
Solution: high bin

Exercise: Try `RRIRTRPPRLPRPRPRPRYNPRP` next.
Solution: low bin

Exercise: Proceed to `RRIRLRPPRLPRPRPRPPNWPRP`
Solution: high bin

----------
Test system: Escherichia coli TOP10
assayRemarks: shrunken log2 fold change of peptide-encoding DNA abundance (4.5 h post-induction vs induction); higher = less antimicrobial activity (less host growth inhibition)
protocolConditions: time post-induction: 4.5 h; library: site-saturation at positions 5, 18, 19, 20
The sequences listed here are annotated with their shrunken log2 fold change.
// no unit, no text: just the number

# example entries with known answers
RRIRVRPPRLPRPRPRPRVRPRP 0.363
RRIRHRPPRLPRPRPRPTYVPRP -0.143
RRIRPRPPRLPRPRPRPTRCPRP 0.279
RRIRYRPPRLPRPRPRPHNCPRP -0.381
RRIRYRPPRLPRPRPRPMMMPRP -0.497
RRIRIRPPRLPRPRPRPETMPRP -0.108
RRIRQRPPRLPRPRPRPWTHPRP 0.00902
RRIRRRPPRLPRPRPRPIREPRP 0.208

Exercise: Fill in the recorded shrunken log2 fold change for this sequence, with Escherichia coli TOP10 as test system: `RRIRMRPPRLPRPRPRPPFGPRP`
Solution: 0.789

Exercise: Can you check `RRIRVRPPRLPRPRPRPSLAPRP` next?
Solution: -0.0683

Exercise: And then `RRIRNRPPRLPRPRPRPFAEPRP` , what is it?
Solution: -0.238

Exercise: Thanks! And `RRIRSRPPRLPRPRPRPNNLPRP` ?
Solution: -1.04

Exercise: And `RRIRGRPPRLPRPRPRPWYAPRP` ?
Solution: -0.249

----------
shrunken log2 fold change listing for selected sequences.
Tested on: Escherichia coli TOP10
assayRemarks: shrunken log2 fold change of peptide-encoding DNA abundance (4.5 h post-induction vs induction); higher = less antimicrobial activity (less host growth inhibition)
protocolConditions: time post-induction: 4.5 h; library: site-saturation at positions 5, 18, 19, 20
Number, no unit, nothing else.

Here are 3 sequences together with their reported answers.
RRIRSRPPRLPRPRPRPITRPRP -0.221
RRIRWRPPRLPRPRPRPEIGPRP 0.0225
RRIRSRPPRLPRPRPRPWPFPRP 0.0554

Exercise: Param readout= shrunken log2 fold change; system= Escherichia coli TOP10; entry= `RRIRFRPPRLPRPRPRPCDWPRP` ; returns value.
Solution: -0.0151

Exercise: Then this sequence: `RRIRLRPPRLPRPRPRPRAWPRP`
Solution: 0.41

Exercise: Record: `RRIRKRPPRLPRPRPRPMKLPRP`
Solution: 0.0347

Exercise: Same read-out for `RRIRYRPPRLPRPRPRPWIKPRP` ?
Solution: 0.106

----------
System: Escherichia coli TOP10;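 further: peptides expressed intracellularly from a pBAD plasmid library in pooled LB shake-flask culture, induced with 0.3% L-arabinose, DNA abundance read by NGS, three biological replicates, DESeq2 with apeglm shrinkage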
assayRemarks: shrunken log2 fold change of peptide-encoding DNA abundance (4.5 h post-induction vs induction); higher = less antimicrobial activity (less host growth inhibition)
protocolConditions: time post-induction: 4.5 h; library: site-saturation at positions 5, 18, 19, 20
Quick list: shrunken log2 fold change per entry.
Please state the value as a number alone, without comment.

Examples with their reported shrunken log2 fold change follow.
RRIRLRPPRLPRPRPRPYIFPRP -0.549
RRIRGRPPRLPRPRPRPPFAPRP 1.91
RRIRGRPPRLPRPRPRPVTFPRP 0.172
RRIRERPPRLPRPRPRPKTYPRP -0.771
RRIRKRPPRLPRPRPRPVVAPRP 0.876
RRIRTRPPRLPRPRPRPFGLPRP 0.0236
RRIRTRPPRLPRPRPRPNIDPRP -0.32
RRIRDRPPRLPRPRPRPHPRPRP 0.081
RRIRMRPPRLPRPRPRPMIKPRP -0.262
RRIRLRPPRLPRPRPRPIILPRP -1.48

Exercise: What shrunken log2 fold change value was documented for this sequence, `RRIRNRPPRLPRPRPRPIFGPRP` ?
Solution: -0.0237

Exercise: Again, but for `RRIRKRPPRLPRPRPRPYCCPRP`
Solution: -0.237

Exercise: What do you have for `RRIRRRPPRLPRPRPRPDDPPRP` ?
Solution: -0.0033

Exercise: // repeat for `RRIRYRPPRLPRPRPRPKFMPRP` and report
Solution: -0.633

Exercise: Continue with `RRIRTRPPRLPRPRPRPMISPRP`
Solution: -0.0443
